# Tested on: U251 CNS
# measurement-protocol: NCI-60 one-dose screen, 48 h (100 = growth as untreated, 0 = no growth, -100 = all killed)
# condition-description: 10 µM unless noted
# Description: Growth inhibition of the U251 human tumor cell line is measured as a screen for anti-cancer activity. Cells are grown in 96 well plates and exposed to the test compound for 48 hours. Compounds are tested at a single concentration, which is 10^-5 M for most compounds. The reported endpoint is percent growth (GI% or GIPRCNT), where numbers from 0 - 100% represent growth inhibition, and numbers from -100% - 0 represent cell death. For example, a value of 40 represents 60% growth inhibition. […]
About 83,000 compounds went through this panel and 20% of them were active in at least one assay; those are over-represented in the sample as a whole.
Note to self: growth under 40% means Satisfied, ties and anything higher get Not satisfied.

Example results:
smiles_text=C=C(C)[C@@H]1CC[C@]2(N=C=O)CC[C@]3(C)[C@H](CC[C@@H]4[C@@]5(C)Cc6c([nH]c7ccccc67)C(C)(C)[C@@H]5CC[C@]43C)[C@@H]12 discrete_label="Not satisfied"
smiles_text=CCOC(=O)c1cnn2c3ccccc3n(S(=O)(=O)c3ccc(OC)cc3)c12 discrete_label=Satisfied
smiles_text=COc1ccc(-c2[nH]c3ccc(OC)cc3c2/C=C(\C#N)S(=O)(=O)c2ccccc2)cc1 discrete_label=Satisfied

Pending molecule:
Exam item: Quick check: does `Cc1nc(NC(=O)COc2ccc(/C=C3\Cc4ccc(Cl)cc4C3=O)cc2)sc1C` have growth under 40%?
Marked response: Not satisfied

====

# System: PC-3 prostate
# measurement-protocol: NCI-60 one-dose screen, 48 h (100 = growth as untreated, 0 = no growth, -100 = all killed)
# condition-description: 10 µM unless noted
The panel holds about 83,000 compounds, 20% with a hit somewhere; the sample as a whole holds those more often.
Quick rule for you: growth at 70% or higher means class 1, lower means class 0.

Study these solved cases before continuing.
smiles_text=CC(=O)c1ccc(Nc2nc(C(C)=O)c(C)s2)cc1 discrete_label="class 1"
smiles_text=O=C(N/N=C/[C@@H](O)[C@H](O)[C@H](O)CO)c1ccc(NC(=O)c2cccnc2)cc1 discrete_label="class 1"
smiles_text=CCOc1ccc2nc(SCc3nc4n(n3)S(=O)(=O)c3ccccc3N4C)sc2c1 discrete_label="class 0"

Exam item: Is growth for `CCCCC[C@H](O)C/C=C1/C(=O)C=C[C@@H]1C/C=C\CCCC(=O)OC` at or above 70%?
Marked response: class 0

====

Recorded measurements of growth, one per entry
# Tested on: HOP-92 NSCLC
# measurement-protocol: NCI-60 one-dose screen, 48 h (100 = growth as untreated, 0 = no growth, -100 = all killed)
# condition-description: 10 µM unless noted
Compounds without any hit were thinned out: in the full panel of roughly 83,000, 20% have a hit.
State just the number; it will be interpreted in %.

compound=Cc1oc2nc[nH]c(=O)c2c1C(=O)/C=C/c1ccc(Br)cc1 obs_value=-10.7
compound=CCOC(=O)CCN(C(=O)Nc1ccccc1)C1CCCCC1 obs_value=111
compound=COC(=O)Nc1ccc(-c2nc(-c3cccc(OC)c3)c(-c3ccnc(Br)c3)[nH]2)cc1 obs_value=62.8

Exam item: Report growth for `COc1cccc(-c2nc(-c3ccc(NC(=O)c4ccccc4)cc3)[nH]c2-c2ccnc(Br)c2)c1` please.
Marked response: 50.2

Exam item: Reported growth, compound COC(=O)C(Cc1ccccc1)NC(=O)NC(=O)NC(=O)CI (stereo not given) : ____
Marked response: -26

Exam item: For `Cc1cc(Cl)ccc1NS(=O)(=O)c1ccc(-c2cnc(C3CC3)o2)cc1` , what is its reported growth?
Marked response: 58.3

Exam item: Recorded growth for `CCOC(=O)Cn1c(=O)c2c(c3ccccc3n2C)n2nnc(-c3ccccc3)c12` , please?
Marked response: -15.2

Exam item: Give the measured growth of `O=C(Nc1ccc(Cl)cc1F)c1ccccc1O` .
Marked response: -14.5

Exam item: What does the record list as growth for `Oc1ccc(C#CCOc2ccccc2)cc1CNCCN(Cc1ccccn1)Cc1ccccn1` ?
Marked response: 42.5

Exam item: For the compound shown here, `CCc1ccc(Oc2c(-c3ccc(OCc4ccc(Cl)cc4)cc3O)n[nH]c2C(F)(F)F)cc1` , give the reported growth.
Marked response: -17.2

Exam item: Fill blank: measured growth of the compound `Cc1ccc(C(=O)N/N=C/c2cccc([N+](=O)[O-])c2)cn1` is ____.
Marked response: 91.4
